Listing of recorded GEO mean difference by entry.
- tgt: T1, canine OX40L, full length membrane form, expressed on HEK293 cells (canine)
- T1 construct: also called OX40L expressing HEK; HEK OX40L cells
- T1 chain: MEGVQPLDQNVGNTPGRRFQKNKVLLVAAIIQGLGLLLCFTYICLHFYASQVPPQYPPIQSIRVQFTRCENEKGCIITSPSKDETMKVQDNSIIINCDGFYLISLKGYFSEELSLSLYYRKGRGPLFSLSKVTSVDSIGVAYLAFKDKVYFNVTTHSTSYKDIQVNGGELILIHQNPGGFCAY
- procedure text: flow cytometry, OX40L HEK minus WT HEK
Just the number, please, no unit after it.

binder: PMX064 (antibody, V domains shown, also called PMX64) VH: EVQLVESGGDLVKPGGSLRLSCVASGFTFSSYHMSWVRQAPGKGLQWVAYITSGGITTSYADAVKGRFTISRDNAKNTLYLQMNSLRAEDTAVYYCASDLVLILGGADYWGQGTLVTVSS VL: SYELTQPPSVNVTLSETAHITCGGDSIGRKYVQWIQQNPGQAPVVIIYKDSNRPTGIPERFSGANSGNTATLTISGALAEDEADYYCQVGDSGTKAVFGGGTHLTVL
value type: GEO mean difference
recorded result: 3.42e+06

*Q* Entry under review: PMX040 (antibody, V domains shown, also called PMX40) VH: EVQLVESGGDLVKPGGSLRLSCVASGFTFSNFEMYWVRQAPGKGLEWVARIYESGTTTYHAEGVKGRFTISKDNVKNMAYLQMNSLRAEDTAVYYCTSASSSSWRFDYWGQGTLVTVSS VL: SYVLTQLPSVSVTLRQTARITCGGDSIGRKNVCWFQQKLGQAPILIIYDDSSRPSGIPERFSGANSGNTATLTISGALAEDEADYYCQVWDSSTGIFGGGTHLTVL . Reported GEO mean difference?
*A* 1.15e+06
